tgt: T1, fragment DIR-II (last 27 amino acids of the sequence encoded by the retained intron of DIR) (human)
T1 construct: also called target fragment DIR-II
T1 peptide: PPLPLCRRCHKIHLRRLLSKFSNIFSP
assayProtocol: ELISA, DIR-II coated; mAb (1 mg/mL) diluted 1:162k
Recorded absorbance at 450 nm for the following binders

Record excerpt, results attached:
binder | result
DIR antibody IR-II-2 (antibody, V domains shown, Monoclonal antibody) VH: EVQLQQSGAELMKPGASVKISCKATGYTFSSYWIEWVKQRPGHGLEWIGEILPGSGTTNYNEKFKGKATFTVDTSSNTAYMQLSSLTSEDSAVYYCARSGVITARGDYYAMDYWGQGTSVTVSS VL: DIVMTQSPASLAVSLGQRATISCKASQSVDYDGDSYMNWYQQKPGQPPKLLIYAASNLDSGIPARFSGSGSGTDFTLNIHPVEEEDAATYYCQQSNEDPRTFGGGTKLEIK | 0.14 absorbance (450 nm)
DIR antibody IR-II-9 (antibody, V domains shown, Monoclonal antibody) VH: QVQLQQSGAELMKPGASVKISCKATGYTFSRYWIEWIKQRPGHGLEWIGEILPGSYYSTNSNEKFKGKATFTADTSSNTAYMQLSSLTSEDSAVYYCARSGVITTRGDYFAMDYWGHGTSVTVSS VL: DIELTQSPASLAVSLGQRATISCKASQSVDYDGESYMNWYQQKPGQPPKLLIYAASNLESGIPARFSGSGSGTDFTLNIHPVEEEDAATYYCQQSYDDPRAFGGGTKLEIK | 0.318 absorbance (450 nm)

Consider the record given below.
Enquiry: What value of measured absorbance at 450 nm is listed for DIR antibody IR-II-8 (antibody, V domains shown, Monoclonal antibody) VH: QVQLQQSGAELMKPGASVKISCKATGYTFSNYWIEWVKQRPGHGLEWIGEILPGSGSTNYNEKFKGKATFTADTSSNTAYMQLSSLTSEDSAVYYCARSGMITTRGDYFAMDYWGQGTSVTVSS VL: DIELTQSPASLAVSLGQRATISCKASQSVDYDGESYMNWYQQKPGQPPKLLIYAASNLESGIPARFSGSGSGTDFTLNIHPVEEEDAATYYCQQSNDDPRTFGGGTKLEIK ?
Return: 0.0911 absorbance (450 nm)
